Please go through the items and note down their Ki.
Target: PTP1B (human recombinant) (Homo sapiens, UniProt P18031)
Construct: purchased Enzo Life Sciences, Inc. (Lausen, Switzerland)
Sequence (P18031 whole entry): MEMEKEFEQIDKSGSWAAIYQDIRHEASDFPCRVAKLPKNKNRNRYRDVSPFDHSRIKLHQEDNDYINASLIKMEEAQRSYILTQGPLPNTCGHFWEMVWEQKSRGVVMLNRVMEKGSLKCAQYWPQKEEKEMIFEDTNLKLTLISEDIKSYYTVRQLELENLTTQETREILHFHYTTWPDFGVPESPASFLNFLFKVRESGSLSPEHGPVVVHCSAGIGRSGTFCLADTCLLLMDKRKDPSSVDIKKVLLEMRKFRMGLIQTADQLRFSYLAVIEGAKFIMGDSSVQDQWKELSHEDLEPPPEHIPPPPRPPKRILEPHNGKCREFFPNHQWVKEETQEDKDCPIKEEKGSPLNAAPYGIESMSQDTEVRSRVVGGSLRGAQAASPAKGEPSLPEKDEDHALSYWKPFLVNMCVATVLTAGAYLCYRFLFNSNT
Assay: Kinetic analysis of PTP1B inhibition (Lineweaver–Burk, secondary plot)
Type: biochemical
Settings: secondary plot of Lineweaver–Burk slopes
Answers are plain numbers, in nM.

Answered examples (2):
[[record]]
smiles_entry = "COc1cc([C@H]2Oc3cc([C@H]4Oc5cc(O)cc(O)c5C(=O)[C@@H]4O)ccc3O[C@@H]2CO)ccc1O"
assay_target = "PTP1B (human recombinant) (Homo sapiens, UniProt P18031)"
obs_value = 1250

[[record]]
smiles_entry = "COc1cc([C@@H]2Oc3c(O)cc([C@H]4Oc5cc(O)cc(O)c5C(=O)[C@@H]4O)cc3[C@H]2CO)ccc1O"
assay_target = "PTP1B (human recombinant) (Homo sapiens, UniProt P18031)"
obs_value = 3950


Quick request: Ki for each listed item, please.
1. COc1cc([C@H]2Oc3ccc([C@H]4Oc5cc(O)cc(O)c5C(=O)[C@@H]4O)cc3O[C@@H]2CO)ccc1O
2. COc1cc([C@@H]2Oc3cc([C@H]4Oc5cc(O)cc(O)c5C(=O)[C@@H]4O)ccc3O[C@H]2CO)ccc1O
3. COc1cc([C@@H]2Oc3ccc([C@H]4Oc5cc(O)cc(O)c5C(=O)[C@@H]4O)cc3O[C@H]2CO)ccc1O

[2250, 4050, 1030]
